- Test system: Nanoluciferase (engineered Oplophorus gracilirostris luciferase)
- method-description: Primary Nanoluciferase (NLuc) qHTS assay for identification of artifact compounds. (AID 1845222);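 also: NLuc secreted into diluted conditioned medium of S16 cells; 0% = DMSO and -100% = no enzyme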
- settings: NLuc-conditioned medium, Nano-Glo luminescence, 5 min; series mostly up to 54.1 µM
Active and inactive are the calls of the source. Calls follow the shape of the dose curve; as a rule, active = well fitted inhibition curve with a large enough effect; inconclusive = small, poorly fitted or top-dose-only effect; inactive = flat fitted curve, though single readings scatter.
outcome-measure: activity, negative = inhibition

Use the examples below as a reference point.
1. CC(C)c1cc2c(c(O)c1O)[C@@]13CCCC(C)(C)[C@@H]1[C@H](OC3=O)C2=O : inactive
2. C[C@@H]1O[C@@H](O[C@H]2[C@H](O[C@H]3[C@H](O[C@H]4CC[C@@]5(C)C(CC[C@]6(C)C5CC=C5[C@@H]7CC(C)(C)CC[C@]7(C(=O)O[C@@H]7O[C@H](CO)[C@@H](O[C@@H]8O[C@@H](C)[C@H](O)[C@@H](O)[C@H]8O)[C@H](O)[C@H]7O)CC[C@]56C)C4(C)C)OC[C@H](O)[C@@H]3O)O[C@H](CO)[C@@H](O)[C@@H]2O)[C@H](O)[C@H](O)[C@H]1O (stereo partly specified) : 4.91% [at 11.6 µM] (inactive)
3. NC(=O)Nc1cc(-c2cccc(F)c2)sc1C(=O)NC1CCCNC1 (stereo unspecified) : inactive
4. C/C1=C\CCC(C)CCO[C@@H]2O[C@H](CO[C@@H]3OC[C@H](O)[C@H](O)[C@H]3OC1=O)[C@@H](O)[C@H](O)[C@H]2O (stereo partly specified) : inactive
5. CC1(C)CCC[C@]2(C)[C@H]3CC(=O)O[C@]3(C)CC[C@@H]12 : inactive

The record that follows has no activity, negative = inhibition shown yet.
Exercise: Please give the documented activity, negative = inhibition of COC(=O)CCC(=O)OC[C@]1(C)CCC[C@@]2(C)C3CC[C@]4(C)C=CC3(CCC12)C4 (stereo partly specified)
Solution: inactive

----------
- Test system: PA-1
- method-description: Primary qHTS to identify gynecologic anti-cancer compounds using libraries of approved drugs and bioactive compounds (AID 1345084); also: nearly all actives have a fitted effect of over 55% in size; also: potency is read from the fitted curve at half-maximal effect
- settings: Gynecologic cancer cell panel viability, ATPlite luminescence, 48 h; series mostly up to 57.5 µM
Records with an inconclusive call do not appear. Activity calls are given as the source filed them. Calls follow the shape of the dose curve; as a rule, active = well fitted cell-killing curve with a large enough effect; inconclusive = small, poorly fitted or top-dose-only effect, or effect the other way; inactive = flat fitted curve, though single readings scatter.
outcome-measure: Potency

Here is how some molecules turned out for Potency.
1. C/C1=C\C[C@]2(C)C(=O)C(O)=C([C@H](C)CO)[C@H]2C/C=C(\C)[C@@H](O)CC/C(C)=C/CC1 : inactive
2. N#Cc1ccc2[nH]cc(CCCCN3CCN(c4ccc5oc(C(N)=O)cc5c4)CC3)c2c1 : inactive
3. CN1CCN(Cc2ccc(-c3cnc4[nH]cc(-c5ccc6[nH]ccc6c5)c4c3)cc2)CC1 : 12.6 µM (active)
4. O=C(CCc1nnc2n(Cc3ccc(Cl)cc3)c(=O)c3ccccc3n12)NCCC1=CCCCC1 : inactive

Next:
Exercise: Hello, please tell me recorded Potency for this one: CC1=C(C(=O)O)/C(=C\CO[C@@H]2O[C@H](CO)[C@@H](O)[C@H](O)[C@H]2O)C(OC(=O)/C=C/c2ccc(O)cc2)C1 (stereo not given in full)
Solution: inactive

----------
- Tested on: CRL-7250
- method-description: Cytotoxic Profiling of Annotated Libraries Using Quantitative High-Throughput Screening (AID 1296008); also: nearly all actives have a fitted effect of over 60% in size
- settings: Five cell lines viability, CellTiter-Glo ATP luminescence, 48-72 h
Results filed as inconclusive are left out. Calls of active or inactive are those of the source. The call rests on the fitted dose curve; in most records, active means well fitted inhibition curve with a large enough effect; inconclusive means small, poorly fitted or top-dose-only effect; inactive means flat fitted curve, though single readings scatter.
Pick from active, inactive when you respond.

Exercise: For C=CC(=O)Nc1cccc(CN2C(=O)N(c3c(Cl)c(OC)cc(OC)c3Cl)Cc3cnc(NCCCCN(CC)CC)nc32)c1 , what call appears in the results of this test?
Solution: active

Exercise: Name the outcome recorded for Cc1cc(Nc2nc(NC(C)c3ncc(F)cn3)ncc2Cl)n[nH]1 (stereo not drawn) in the assay.
Solution: inactive

Exercise: Tell me the recorded outcome of this test for CCNC(=O)Nc1ccc(-c2nc3c(c(N4CCOC[C@@H]4C)n2)CCN(c2ncccn2)C3)cc1 .
Solution: active

Exercise: Would you mind telling me which call this test gave CC(Oc1ccc2[nH]nc(/C=C/c3cnn(CCO)c3)c2c1)c1c(Cl)cncc1Cl (stereo not drawn) ?
Solution: active

Exercise: // outcome(item) with item = CN(C)c1nc(NC2CCC(NCCc3ccc(Br)cc3OC(F)(F)F)CC2)nc2ccccc12 (stereo not drawn)
Solution: active

Exercise: // return assay outcome for COc1cccc(Nc2ncnn3ccc(CN4CC[C@@H](N)[C@H](O)C4)c23)c1
Solution: active

Exercise: Short answer needed: outcome of this test for O=C(Nc1ccn[nH]1)c1c(F)cccc1F ?
Solution: inactive

Exercise: Record request — test call for C=CC(C)(CC/C=C(\C)C(=O)OC)OC1OC(COC(=O)CC(C)(O)CC(=O)O)C(OC2OC(CO)C(O)C(O)C2O)C(O)C1O (stereo not drawn)
Solution: inactive

Exercise: // return assay outcome for CCC(C)C(=O)OC1CC(C)C=C2C=CC(C)C(CCC(O)CC(O)CC(=O)O)C21 (stereo not drawn)
Solution: active

Exercise: Name the outcome recorded for CC1(C)CC[C@]2(C(=O)O)CC[C@]3(C)C(=CCC4[C@@]5(C)C[C@@H](O)[C@H](O)C(C)(C)C5CC[C@]43C)C2C1 (stereo partly drawn) in the assay.
Solution: inactive

Exercise: For this compound, state the assay outcome: COC(=O)[C@@H](O)[C@H]1[C@@]2(C)CC3(O)[C@@H](C(=O)[C@H]2O)[C@]24O[C@]25CC(=O)O[C@@H](c2ccoc2)[C@]5(C)CCC4[C@]13C (stereo partly drawn)
Solution: inactive

Exercise: I'd appreciate the recorded outcome for CC1COC(Nc2ccc3ncnc(Nc4ccc(OCc5nccs5)c(Cl)c4)c3c2)=N1 (stereo not drawn) from this test.
Solution: active

Exercise: What is the recorded call for this compound in the test? CC1=C2C[C@H]3O[C@@]3(C)CCC3O[C@@]3(C)C[C@@]2(O)OC1=O (stereo partly drawn)
Solution: inactive

Exercise: What did this assay record as the result for CC(C)C(CO)Nc1nc(Nc2ccc(C(=O)O)c(Cl)c2)c2ncn(C(C)C)c2n1 (stereo not drawn) ?
Solution: inactive

Exercise: // return assay outcome for COc1cc(O)cc(C)c1C(=O)O[C@H]1[C@@H](OC(C)=O)[C@H](n2ccc(=O)[nH]c2=O)O[C@@H]1CO
Solution: inactive

Exercise: Would you mind telling me which call this test gave O=C(CN1C(=O)C2(CCCC2)NCC1c1cc(F)cc(F)c1)Nc1ccc2c(c1)CC1(C2)C(=O)Nc2ncccc21 (stereo not drawn) ?
Solution: inactive

Exercise: Per the records of this test, what outcome belongs to COC(=O)C1=COC(OC2OC(CO)C(O)C(O)C2O)C2C1C=CC2(O)CO (stereo not drawn) ?
Solution: inactive

Exercise: Short answer needed: outcome of this test for O=C(Nc1c(-c2cccs2)nc2ccccn12)c1ccc(Cl)cc1 ?
Solution: inactive
